All figures here come from patent US9895330B2.

# target: IDO (IFNγ-treated Hela cells) (Homo sapiens, UniProt P14902)
# Construct: endogenous in cells
# Sequence (P14902 whole entry): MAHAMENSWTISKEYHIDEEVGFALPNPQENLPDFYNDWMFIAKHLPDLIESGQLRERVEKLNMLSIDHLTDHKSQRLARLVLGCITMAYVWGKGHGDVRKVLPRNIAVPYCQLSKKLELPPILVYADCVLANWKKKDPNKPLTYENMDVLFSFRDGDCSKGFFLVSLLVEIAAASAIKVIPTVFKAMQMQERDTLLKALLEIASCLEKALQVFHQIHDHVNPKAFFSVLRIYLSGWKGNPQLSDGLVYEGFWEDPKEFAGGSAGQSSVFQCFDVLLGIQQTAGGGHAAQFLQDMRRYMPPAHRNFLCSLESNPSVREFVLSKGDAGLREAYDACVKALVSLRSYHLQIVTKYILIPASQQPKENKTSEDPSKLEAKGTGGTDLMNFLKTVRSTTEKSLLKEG
# method summary: IDO Kynurenine Assay with Hela Cells
# stated conditions: IFNγ 10 ng/ml, 20 hours incubation, kynurenine absorbance at 490 nm, read-out: Hela Cells LLE_IDO_ABS_DR (IC50)
The label is label 1 for IC50 below 300 nM and label 0 for IC50 equal to or exceeding 300 nM.

Challenge: Please determine if Cc1ccc(CC(=O)Nc2cc(-c3ccccc3-c3nnn[nH]3)ccc2N(CC(C)C)CC(C)C)cc1 [Example 2] is below 300 nM in terms of IC50.
Response given: label 1

Challenge: Please determine if N#Cc1ccc(CC(=O)Nc2cc(-c3ccccc3-c3nnn[nH]3)ccc2N2CC3CC2CN3Cc2ccccc2)cc1 (stereo not drawn) [Example 79] is below 300 nM in terms of IC50.
Response given: label 0

Challenge: Please determine if Cc1nc(CC(=O)Nc2cc(-c3ccccc3-c3nnn[nH]3)ccc2N(CC(C)C)CC(C)C)cs1 [Example 36] is below 300 nM in terms of IC50.
Response given: label 0

Challenge: Please determine if CC(C)CN(CC(C)C)c1ccc(-c2ccccc2-c2nnn[nH]2)cc1NC(=O)CC(F)(F)F [Example 35] is below 300 nM in terms of IC50.
Response given: label 1

Challenge: Please determine if CC(C)CN(CC(C)C)c1ccc(-c2ccccc2-c2nnn[nH]2)cc1NC(=O)Cc1ccc(C(C)C)cc1 [Example 13] is below 300 nM in terms of IC50.
Response given: label 0

Challenge: Please determine if CC(C)CN(CC(C)C)c1ccc(-c2ccccc2-c2nnn[nH]2)cc1NC(=O)Cc1ccccc1F [Example 19] is below 300 nM in terms of IC50.
Response given: label 1

Challenge: Please determine if COCCOCC(=O)Nc1cc(-c2ccccc2-c2nnn[nH]2)ccc1N(CC(C)C)CC(C)C [Example 41] is below 300 nM in terms of IC50.
Response given: label 0

Challenge: Please determine if C[C@@H]1C[C@H](C)CN(c2ccc(-c3ccccc3-c3nnn[nH]3)cc2NC(=O)Cc2ccc(F)cc2)C1 [Example 22] is below 300 nM in terms of IC50.
Response given: label 0

Challenge: Please determine if CC(C)CN(CC(C)C)c1ccc(-c2ccccc2-c2nnn[nH]2)cc1NC(=O)Cc1ccccc1Cl [Example 25] is below 300 nM in terms of IC50.
Response given: label 1

Challenge: Please determine if CC(C)CN(Cc1ccccc1)c1ccc(-c2ccccc2-c2nnn[nH]2)cc1NC(=O)Cc1ccc(C#N)cc1 [Example 54] is below 300 nM in terms of IC50.
Response given: label 1

Challenge: Please determine if CC(C)CN(CC(C)C)c1ccc(-c2ccccc2-c2nnn[nH]2)cc1NC(=O)Oc1ccc(OCc2ccccc2)cc1 [Example 53] is below 300 nM in terms of IC50.
Response given: label 0

Challenge: Please determine if CC(C)CN(CC(C)C)c1ccc(-c2ccccc2-c2nnn[nH]2)cc1NC(=O)Cc1ccc(F)cc1 [Example 12] is below 300 nM in terms of IC50.
Response given: label 1

Challenge: Please determine if Cc1ccc(CC(=O)Nc2cc(-c3ccccc3-c3nnn[nH]3)ccc2N(Cc2ccccc2)CC(C)C)cc1 [Example 74] is below 300 nM in terms of IC50.
Response given: label 1

Challenge: Please determine if Cc1noc(C)c1CC(=O)Nc1cc(-c2ccccc2-c2nnn[nH]2)ccc1N(CC(C)C)CC(C)C [Example 37] is below 300 nM in terms of IC50.
Response given: label 0
